# EXPERIMENTAL TARGET: anti-CD28 Fab (SEQ ID NOs: 696, 697)
# Sequence (VH, as listed by the source, chain 1 of 2): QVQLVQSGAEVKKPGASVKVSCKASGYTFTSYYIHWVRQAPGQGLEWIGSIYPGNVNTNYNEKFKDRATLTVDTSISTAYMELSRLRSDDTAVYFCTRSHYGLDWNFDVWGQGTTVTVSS
# Sequence (VL, as listed by the source, chain 2 of 2): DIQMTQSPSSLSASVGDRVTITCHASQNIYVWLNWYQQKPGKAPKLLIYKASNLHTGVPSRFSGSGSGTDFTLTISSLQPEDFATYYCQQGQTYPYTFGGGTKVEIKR
# ASSAY TEXT: phage binding ELISA; Fab on plate pre-incubated with CD28 antigen as competitor, anti-M13 HRP detection;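 note: crude clonal phage supernatants screened by ELISA, with comparison wells pre-incubated in blocking buffer only, lacking CD28 antigen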
Entries and their measured Anti-CD28 Fab signal in the presence of CD28 follow.
METRIC NAME: Anti-CD28 Fab signal in the presence of CD28

>  <BINDER>
YCDGHVAEYMAKCL (tested as crude phage supernatant) [Phage-627]

>  <VALUE OBSERVED>
0.07

$$$$
>  <BINDER>
YCDGHSNEYMAKCL (tested as crude phage supernatant) [Phage-625]

>  <VALUE OBSERVED>
0.07

$$$$
>  <BINDER>
YCAGHSPEYMTKCL (tested as crude phage supernatant) [Phage-621]

>  <VALUE OBSERVED>
0.09

$$$$
>  <BINDER>
YCDGHVAEYRDKCL (tested as crude phage supernatant) [Phage-623]

>  <VALUE OBSERVED>
0.07

$$$$
>  <BINDER>
YCAGHAPEYIQKCL (tested as crude phage supernatant) [Phage-622]

>  <VALUE OBSERVED>
0.09

$$$$
>  <BINDER>
YCDGHSLEYMAKCL (tested as crude phage supernatant) [Phage-630]

>  <VALUE OBSERVED>
0.06

$$$$
>  <BINDER>
YCDGHTQEYMAKCL (tested as crude phage supernatant) [Phage-618]

>  <VALUE OBSERVED>
0.07

$$$$
>  <BINDER>
YCEGHLPQYLQKCL (tested as crude phage supernatant) [Phage-626]

>  <VALUE OBSERVED>
0.09

$$$$
